System: CD11b
assay.summary: Human whole blood CD11b up-regulation assay
Assay type: cell-based
reported.conditions: Homo sapiens, 2 nM human C5a, CD15+ granulocytes, read-out: hCD11b IC50
reported.endpoint: IC50
Answer by giving the amount and then stating its unit.

Some solved cases for reference:
>>> df
                              sample_smiles  reported_result
0  CO[C@H]1CCN(c2nc(-c3c(C)ccc4[nH]nc(C)c34)nc3c2CN(c2c(Cl)c(C4CC4)nn2C)CC3)CC1(C)C            36 nM
1  CO[C@@H]1CCN(c2nc(-c3c(C)cccc3C)nc3c2CN(c2cc(C(F)(F)F)ccc2C)CC3)[C@H](C)C1            51 nM
2  CCn1nc(C2CC2)c(Cl)c1N1CCc2nc(-c3c(C)ccc4[nH]nc(C)c34)nc(N3CCOC[C@H]3C)c2C1            19 nM
3  Cc1ccc(C(C)C)cc1N1CCc2nc(-c3cccc4[nH]cc(C)c34)nc(N3CC(O)C3)c2C1           513 nM

Proceed to the following item.
Fill blank: measured IC50 of the molecule `CO[C@@H]1CCN(c2nc(-c3c(C)ccc4[nH]nc(C)c34)nc3c2CN(c2cc(C(F)(F)F)ccc2C)CC3)[C@H](C)C1` is ____.
6 nM

----------
Entries annotated with measured pIC50
system: human C5aR (Homo sapiens (Human))
Sequence (P21730 whole entry): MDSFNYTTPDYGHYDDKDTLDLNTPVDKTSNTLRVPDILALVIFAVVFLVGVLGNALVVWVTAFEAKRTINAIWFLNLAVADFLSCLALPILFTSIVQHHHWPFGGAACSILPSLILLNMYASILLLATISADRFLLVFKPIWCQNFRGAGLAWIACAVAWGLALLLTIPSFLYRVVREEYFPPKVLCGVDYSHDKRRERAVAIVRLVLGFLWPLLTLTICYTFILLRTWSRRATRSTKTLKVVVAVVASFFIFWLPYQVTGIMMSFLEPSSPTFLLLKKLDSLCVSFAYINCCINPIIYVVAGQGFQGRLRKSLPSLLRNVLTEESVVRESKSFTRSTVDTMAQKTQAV
assay.summary: FLIPR assay: inhibition of C5a-mediated calcium mobilization
reported.conditions: stable cell line over expressing human C5aR & Gα15, human C5a at EC50 (0.1-0.25 nM)
On this scale, pIC50 is minus log10 of a concentration expressed in M (mol/L).

Fill blank: measured pIC50 of the compound CO[C@@H]1CCN(c2nc(-c3c(C)ccc4[nH]nc(C)c34)nc3c2CN(c2cc(C(C)C)ccc2C)CC3)[C@H](C)C1 [Example 21-Q] is ____.
9.00

Fill blank: measured pIC50 of the compound CO[C@@H]1CCN(c2nc(-c3c(C)cccc3C)nc3c2CN(c2cc(C4(C)COC4)ccc2C)CC3)[C@H](C)C1 [Example 21-K] is ____.
8.70

Fill blank: measured pIC50 of the compound CO[C@@H]1CCN(c2nc(-c3c(C)cc(C)cc3C)nc3c2CN(c2cc(C(C)C)ccc2C)CC3)CC1(C)C [Example 21-AE] is ____.
8.05

Fill blank: measured pIC50 of the compound CO[C@@H]1CCN(c2nc(-c3c(C)ccc4[nH]nc(C)c34)nc3c2CN(c2cc(C(F)(F)F)nn2C)CC3)[C@H](C)C1 [Example 23-J] is ____.
8.10

Fill blank: measured pIC50 of the compound Cc1cc(-c2c(C(C)C)ccc3[nH]ncc23)nc2c1CN(c1c(Cl)c(C3CC3)nn1C)CC2 [Example 46-B] is ____.
7.38

Fill blank: measured pIC50 of the compound [2H]C1([2H])c2c(C)cc(-c3cccc4[nH]cc(C)c34)nc2CCN1c1c(C)nn(CC)c1C [Example 47-B] is ____.
7.25

Fill blank: measured pIC50 of the compound Cc1ccc2[nH]nc(C)c2c1-c1nc2c(c(N3C[C@@H](O)[C@@H]3C)n1)CN(c1c(Cl)c(C3CC3)nn1C)CC2 (racemic) [Example 69-H] is ____.
8.40

Fill blank: measured pIC50 of the compound CC(=O)N1CCN(c2nc(-c3ccccc3C(F)(F)F)nc3c2CN(c2cc(C(C)C)ccc2C)CC3)[C@H](C)C1 [Example 25-F] is ____.
7.64

Fill blank: measured pIC50 of the compound [2H]C1([2H])c2c(C)cc(-c3c(CC)cccc3CC)nc2CC(C)N1c1cc(C2CC2)nn1C (stereo not drawn) [Example 42-H] is ____.
7.24

Fill blank: measured pIC50 of the compound [2H]C1([2H])c2c(C)cc(-c3c(CC)cccc3CC)nc2CCN1c1c(Cl)c(C2CC2)nn1C [Example 42-I] is ____.
7.85

Fill blank: measured pIC50 of the compound CC(=O)N1CCN(c2nc(-c3cccc4[nH]cc(C)c34)nc3c2CN(c2cc(C4CC4)ccc2C)CC3)[C@H](C)C1 [Example 25-C] is ____.
8.30

Fill blank: measured pIC50 of the compound CO[C@@H]1CCN(c2nc(-c3c(C)ccc4[nH]nc(C)c34)nc3c2CN(c2cc(C4CC4)nn2C)CC3)CC1(C)C [Example 23-I] is ____.
9.30

Fill blank: measured pIC50 of the compound CO[C@H]1CCN(c2nc(-c3c(C)cccc3C)nc3c2CN(c2cc(C(C)C)ccc2C)CC3)CC1(C)C [Example 19-AD] is ____.
8.70

Fill blank: measured pIC50 of the compound Cc1ccc(C(C)C)cc1N1CCc2nc(-c3cccc4[nH]cc(C)c34)nc(N3CC(N(C)C)C3)c2C1 [Example 17-BG] is ____.
7.82

Fill blank: measured pIC50 of the compound COC1CCN(c2nc(-c3c(C)cccc3C)nc3c2CN([C@@H](C)c2ccccc2)CC3)CC1(C)C (mixture of isomers) [Example 33-C] is ____.
7.10

Fill blank: measured pIC50 of the compound CO[C@@H]1CCN(c2nc(-c3c(C)cccc3C)nc3c2CN(c2cc(C(F)(F)F)ccc2C)CC3)[C@H](C)C1 [Example 21-AK] is ____.
8.30

Fill blank: measured pIC50 of the compound Cc1ccccc1N1CCc2nc(-c3c(C)cccc3C)nc(N3CCOC(C)(C)C3)c2C1 [Example 17-Y] is ____.
6.80

Fill blank: measured pIC50 of the compound CO[C@@H]1CCN(c2nc(-c3c(C)cccc3C)nc3c2CN(c2cc(C(C)C)ccc2C)CC3)[C@H](C)C1 [Example 21-D] is ____.
9.30

Fill blank: measured pIC50 of the compound CO[C@@H]1CCN(c2nc(-c3c(C)cccc3C#N)nc3c2CN(c2cc(C(C)C)ccc2C)CC3)C[C@H]1C [Example 19-AK] is ____.
7.51

Fill blank: measured pIC50 of the compound Cc1ccc(C(C)C)cc1N1CCc2nc(-c3c(C)ccc4[nH]nc(C)c34)nc(N3CCOC[C@H]3C)c2C1 [Example 65-K] is ____.
8.70
